# Test system: 966289-007-R4-J1-PDC complex spheroid viability;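 further: spheroids exposed to agents for one week before readout; percent viability relative to DMSO vehicle control wells as 100%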
# experimental_details: Anticancer human tumor 966289-007-R4-J1-PDC patient-derived pancreatic adenocarcinoma cell line growth inhibition [RAS]
# measurement_setup: second compound 0.3 µM; first compound 1 µM; hits give low values
measured_parameter: viability, T/C

molecule	viability, T/C
CC(C)NCC(C(=O)N1CCN(c2ncnc3c2C(C)CC3O)CC1)c1ccc(Cl)cc1 (stereo not given) + CCn1c(-c2cc(N3CCN(C)CC3)cnc2C(C)OC)c2c3cc(ccc31)-c1csc(n1)CC(NC(=O)C1CC1C)C(=O)N1CCCC(N1)C(=O)OCC(C)(C)C2	98.3%

Exercise: Record request: viability, T/C value, item CC(C)NCC(C(=O)N1CCN(c2ncnc3c2C(C)CC3O)CC1)c1ccc(Cl)cc1 (stereo not given) + CCn1c(-c2cccnc2C(C)OC)c2c3cc(ccc31)N1CCOC(CC(NC(=O)C(C(C)C)N(C)C(=O)C3(F)CCN(C(=O)C#CC(C)(C)N(C)C)CC3)C(=O)N3CCCC(N3)C(=O)OCC(C)(C)C2)C1
Key: 99.9%

Exercise: Follow-up entry: NC1c2ccccc2OC12CCN(c1cnc3c(N4CCCc5ncccc54)n[nH]c3n1)CC2 (stereo not given) + CCn1c(-c2cc(N3CCN(C)CC3)cnc2C(C)OC)c2c3cc(ccc31)-c1csc(n1)CC(NC(=O)C1CC1C)C(=O)N1CCCC(N1)C(=O)OCC(C)(C)C2
Key: 97.3%
